Sourced from patent US12624050B2

# measurement protocol: Solubility experiment in different media, thermodynamic solubility at 37°C
# Type: physicochemical
# test context: medium of pH 7, aqueous buffer, thermodynamic from solid; medium pH 7, 37° C., 24 hours, thermodynamic solubility
measured metric: solubility at 24 h (µg/mL)

INSERT INTO results (compound, measured_metric, reading_unit, reported_value) VALUES
  ('CCS(=O)(=O)O.C[C@H](Nc1ccc2c(c1)OCCn1cc(N3C(=O)SC[C@H]3C(F)F)nc1-2)C(N)=O [crystal form A of ethanesulfonate salt]', 'solubility at 24 h', 'µg/mL', 12);

====

List of half-life values.
# measurement protocol: PK studies in animals of salt crystal forms, intragastric 30 mg/kg
# Format: in vivo
# test context: rat, in vivo, po, rats, 30 mg/kg (as free compound), 0.5% HPMC K4M suspension
measured metric: half-life (h)

INSERT INTO assay_data (compound, reported_value) VALUES
  ('CS(=O)(=O)O.C[C@H](Nc1ccc2c(c1)OCCn1cc(N3C(=O)SC[C@H]3C(F)F)nc1-2)C(N)=O [crystal form A of mesylate salt]', 3.54),
  ('C[C@H](Nc1ccc2c(c1)OCCn1cc(N3C(=O)SC[C@H]3C(F)F)nc1-2)C(N)=O.O=S(=O)(O)O [crystal form D of sulfate salt]', 3.3),
  ('CCS(=O)(=O)O.C[C@H](Nc1ccc2c(c1)OCCn1cc(N3C(=O)SC[C@H]3C(F)F)nc1-2)C(N)=O [crystal form A of ethanesulfonate salt]', 3.01);

====

# Test system: HCC1954 (H1047R)
# measurement protocol: Proliferation inhibition of PI3Kα mutant cancer cells, Cell Titer-Glo, HCC1954
# Format: cell-based
# test context: Homo sapiens
# Protocol: The proliferation inhibitory effect of the compounds of the examples on the PI3Kα mutant cancer cell lines (HCC1954, HGC-27 and MKN1) was detected by Cell Titer-Glo method. […] The chemiluminescence was measured by a SynergyH1 microplate reader from BioTek. The percentage inhibition data of the compound-treated well was calculated from solvent control wells on the plate {% inhibition=100−(test compound value−solvent control value)×100}. […]
pIC50: −log10 of the molar value.
measured metric: pIC50

INSERT INTO results (compound, reported_value) VALUES
  ('C[C@H](Nc1ccc2c(c1F)OCCn1cc(N3C(=O)SC[C@H]3C(F)F)nc1-2)C(N)=O', 7.01),
  ('C[C@H](Nc1ccc2c(c1)OCCn1cc(N3C(=O)SC[C@H]3C(F)F)nc1-2)C(N)=O', 7.68),
  ('C[C@H](Nc1ccc2c(c1)OCCn1cc(N3C(=O)CC[C@H]3C(F)F)nc1-2)C(N)=O', 6.74),
  ('NC(=O)[C@@H]1CCN1c1ccc2c(c1)OCCn1cc(N3C(=O)OC[C@H]3C(F)F)nc1-2', 6.69),
  ('COC[C@H](Nc1ccc2c(c1)OCCn1cc(N3C(=O)SC[C@H]3C(F)F)nc1-2)C(N)=O', 7.24),
  ('CC(Nc1ccc2c(c1)OCCn1cc(N3C(=O)OC(C)[C@H]3C(F)F)nc1-2)C(N)=O (stereo in doubt)', 6.80),
  ('C[C@@H](C(N)=O)N(C)c1ccc2c(c1)OCCn1cc(N3C(=O)SC[C@H]3C(F)F)nc1-2', 7.54),
  ('C[C@H](Nc1ccc2c(c1)SCCn1cc(N3C(=O)OC[C@H]3C(F)F)nc1-2)C(N)=O', 7.89),
  ('CC(C)[C@H](Nc1ccc2c(c1)OCCn1cc(N3C(=O)OC[C@H]3C(F)F)nc1-2)C(N)=O', 6.69),
  ('COC[C@H](Nc1ccc2c(c1F)OCCn1cc(N3C(=O)SC[C@H]3C(F)F)nc1-2)C(N)=O', 6.61),
  ('C[C@H](Nc1ccc2c(c1F)OCCn1cc(N3C(=O)OC[C@H]3C(F)F)nc1-2)C(N)=O', 6.65),
  ('NC(=O)[C@@H]1CCCN1c1ccc2c(c1)OCCn1cc(N3C(=O)SC[C@H]3C(F)F)nc1-2', 7.40),
  ('C[C@H](Nc1ccc2c(c1)OCCn1cc(N3C(=O)O[C@H](C)[C@H]3C(F)F)nc1-2)C(N)=O', 7.10),
  ('C[C@H](Nc1ccc2c(c1)N(C)CCn1cc(N3C(=O)OC[C@H]3C(F)F)nc1-2)C(N)=O', 7.30),
  ('C[C@@H](C(N)=O)N(C)c1ccc2c(c1)OCCn1cc(N3C(=O)OC[C@H]3C(F)F)nc1-2', 6.95),
  ('COC[C@H](Nc1ccc2c(c1)OCCn1cc(N3C(=O)OC[C@H]3C(F)F)nc1-2)C(N)=O', 6.65);
